Hey, just so you know, these numbers are from PubChem BioAssay (NCI).

Tested on: HT29 colon
assay notes: NCI-60 one-dose screen, 48 h (100 = growth as untreated, 0 = no growth, -100 = all killed)
assay setup: 10 µM unless noted
The panel holds about 83,000 compounds, 20% with a hit somewhere; the sample as a whole holds those more often.

| compound | study target | unit name | growth |
| --- | --- | --- | --- |
| O=C(/C=C/c1ccc(Cl)cc1)c1ccc(O)c(CN2CCN(c3cc4c(cc3F)c(=O)c(C(=O)O)cn4C3CC3)CC2)c1 | HT29 colon | % | 33.8 |
| Cn1c2ccccc2c2c3c(c4c5ccccc5n(CCCCCC#N)c4c21)C(=O)N(O)C3=O | HT29 colon | % | 4.37 |
| OC(c1cccc(C(F)(F)F)c1)c1cnccc1NC1CCCCCC1 (stereo not given) | HT29 colon | % | -6.41 |
| CC[C@H](Nc1cc(C)nc(N)n1)c1nc2cccc(NCc3ccc(C(=O)NO)cc3)c2c(=O)n1-c1ccccc1 | HT29 colon | % | 10.2 |
| COc1cc(OC)c(/C=C/S(=O)(=O)Cc2cnc(OC)c(N)c2)c(OC)c1 | HT29 colon | % | 0.841 |
| O=C(CCN1CCOCC1)Nc1ccc(Cn2nnc3c2C(=O)c2nnn(Cc4ccc(NC(=O)CCN5CCOCC5)cc4)c2C3=O)cc1 | HT29 colon | % | 1.57 |
| Clc1ccc(-c2nnc(COc3ccccc3Cl)o2)cc1 | HT29 colon | % | 71 |
| O=C(Nc1cccc2[nH]c(C(F)(F)F)nc12)c1ccc(Br)cc1F | HT29 colon | % | 61.9 |
| CC(C)(C)n1cc(-c2ccnc(NCCCNS(=O)(=O)c3cccc4ccccc34)c2)c(-c2cccc(O)c2)n1 | HT29 colon | % | -20.2 |
| COc1ccc(CN2C(=O)/C(=C\c3cc(OC)c(OC)c(OC)c3)c3cc(OC)ccc32)cc1 | HT29 colon | % | -25.3 |
| CCN(CC)c1ccc(/C=C/C2=[N+](C)c3ccccc3C2(C)C)cc1 | HT29 colon | % | 10.7 |
| c1ccc(CSc2ncnc3nc[nH]c23)nc1 | HT29 colon | % | 112 |
| NS(=O)(=O)N(c1cc(C(F)(F)F)cc(C(F)(F)F)c1)C1CCN(Cc2ccc(F)cc2)CC1 | HT29 colon | % | 8.44 |
| Cc1ccc(S(=O)(=O)N(CCc2ccc(Cl)cc2)S(=O)(=O)c2ccc(C)cc2)cc1 | HT29 colon | % | 86 |
| CSc1nc2sc3c(c2c(=O)n1-c1ccc(C(C)C)cc1)CCC(=O)C3 | HT29 colon | % | 11.4 |
| C[C@@H]1CCC2=C(CCC[C@]2(C)C(=O)O)[C@@]1(C)CCc1ccoc1 | HT29 colon | % | 86.9 |
| COc1cc(C2CC(=O)Nc3c2cnn3Cc2ccco2)cc2c1OCCO2 (stereo not given) | HT29 colon | % | 88.8 |
| CS(=O)(=O)c1ccc(-c2cnc3ccc(-c4cccc(S(C)(=O)=O)c4)nn23)cc1 | HT29 colon | % | 33.7 |
| COc1ccc(/C=C2\N=C3SC=C(N)N3C2=O)cc1 | HT29 colon | % | 9.12 |
| COc1ccc2nc3cc(Cl)ccc3c(N3CCN(c4ccnc(N5CCOCC5)n4)CC3)c2c1 | HT29 colon | % | -18.2 |
